Documented pIC50 across a set of compounds
Tested System: hT2R54 (Homo sapiens, UniProt P59534)
Construct: expressed in transfected cells; it overexpresses a promiscuous G protein
Sequence (P59534 whole entry): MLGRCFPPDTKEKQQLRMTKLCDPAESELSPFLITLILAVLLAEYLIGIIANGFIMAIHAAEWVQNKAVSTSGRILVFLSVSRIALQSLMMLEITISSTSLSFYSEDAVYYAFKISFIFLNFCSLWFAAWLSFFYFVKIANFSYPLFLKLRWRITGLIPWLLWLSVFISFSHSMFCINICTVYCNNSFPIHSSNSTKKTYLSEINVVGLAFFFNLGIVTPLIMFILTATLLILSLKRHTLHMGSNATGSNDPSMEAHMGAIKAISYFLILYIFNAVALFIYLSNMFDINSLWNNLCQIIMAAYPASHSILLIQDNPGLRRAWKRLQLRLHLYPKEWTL
Test Details: Cell-based assay for measuring hT2R54 inhibition (FLIPR calcium, Fluo4AM, acetaminophen as bitter agonist)
Condition Context: Table 2; cells stably expressing hT2R54 and a promiscuous G protein; read-out: hT2R54 IC50
Please report pIC50 as the negative decimal logarithm of the molar concentration, giving only the number.

IN: Given COCc1ccc(C(=O)N2CCN(C(C)C(=O)Nc3cc4c(cc3C(C)=O)OCCO4)CC2)cc1 (stereo not drawn) , report its pIC50 on hT2R54 (Homo sapiens, UniProt P59534).
OUT: 6.72

IN: Given CC(=O)c1cc2c(cc1NC(=O)CN1CCN(C(=O)CC3CCCO3)CC1)OCO2 (stereo not drawn) , report its pIC50 on hT2R54 (Homo sapiens, UniProt P59534).
OUT: 7.15

Others:
IN: Given COc1cc2c(cc1NC(=O)CN1CCN(C(=O)C3CCCO3)CC1)CCC2 (stereo not drawn) , report its pIC50 on hT2R54 (Homo sapiens, UniProt P59534).
OUT: 5.72
